- Tested on: MDCK
- Assay Comment: Cytotoxicity against dog MDCK cells at 30 uM
- Format: functional, cell-based
- Run Parameters: Canis lupus familiaris
Activity calls are given as the source filed them. The calls are words filed in the database; no cut-off is given here.

| Molecule Smiles | Activity |
| --- | --- |
| COc1ccc([C@@H](C)N(CC=C(c2ccccc2)c2ccccc2)CCN(C)C)cc1 | Active |
| CCN(CC)CCN(CC=C(c1ccccc1)c1ccccc1)[C@H](C)c1ccc(OC)cc1 | Active |
| COc1ccc([C@@H](C)N(CC=C(c2ccccc2)c2ccccc2)CCN2CCNCC2)cc1 | Active |
| COc1ccc([C@@H](C)N(CC=C(c2ccccc2)c2ccccc2)CC(=O)N2CCN(C)CC2)cc1 | inactive |
| C[C@H](c1cccc(Cl)c1)N(CC=C(c1ccccc1)c1ccccc1)CCN1CCN(C)CC1 | Active |
| C[C@H](c1ccc(F)cc1)N(CC=C(c1ccccc1)c1ccccc1)CCN1CCN(C)CC1 | Active |
| CCN(CC=C(c1ccccc1)c1ccccc1)[C@H](C)c1ccc(OC)cc1 | inactive |
| COc1ccc([C@@H](C)N(CC=C(c2ccccc2)c2ccccc2)CCN2CCCC2)cc1 | Active |

====

- System: MDCK
- Assay Comment: Inhibition of ASM in dog MDCK cells co-expressing recombinant full length mGFP-tagged KRAS G12V mutant and mCherry-CAAX assessed as reduction in plasma membrane localization of KRAS mutant incubated for 48 hrs by confocal microscopic analysis relative to control
- Format: cell membranes
- Run Parameters: Canis lupus familiaris
Emax values for the compounds below.

| Molecule Smiles | Emax |
| --- | --- |
| COc1ccc([C@@H](C)N(C)CC=C(c2ccccc2)c2ccccc2)cc1 | 0.75 |
| COc1ccc([C@@H](C)N(CC=C(c2ccccc2)c2ccccc2)CCO)cc1 | 0.72 |
| COc1ccc([C@@H](C)N(CC=C(c2ccccc2)c2ccccc2)C(=O)CN2CCN(C)CC2)cc1 | 0.51 |
| C[C@H](c1cccc(Cl)c1)N(CC=C(c1ccccc1)c1ccccc1)CCN1CCN(C)CC1 | 0.77 |
| C[C@H](c1ccccc1)N(CC=C(c1ccccc1)c1ccccc1)CCN1CCN(C)CC1 | 0.79 |
| COc1ccc([C@@H](C)N(CC=C(c2ccccc2)c2ccccc2)CCN2CCOCC2)cc1 | 0.86 |
| COc1ccc([C@@H](C)N(CC=C(c2ccccc2)c2ccccc2)CCN(C)C)cc1 | 0.66 |
| C=CCN(CCN1CCN(C)CC1)[C@H](C)c1ccc(OC)cc1 | 0.76 |
| CCN(CC)CCN(CC=C(c1ccccc1)c1ccccc1)[C@H](C)c1ccc(OC)cc1 | 0.89 |
| C[C@H](c1ccc(F)cc1)N(CC=C(c1ccccc1)c1ccccc1)CCN1CCN(C)CC1 | 0.83 |
| COc1ccc([C@@H](C)N(CC=C(c2ccccc2)c2ccccc2)CCN2CCCC2)cc1 | 0.85 |
| COc1ccc([C@@H](C)N(CC=C(c2ccccc2)c2ccccc2)CCN2CCN(C)CC2)cc1 | 0.75 |
| COc1ccc([C@@H](C)N(CC=C(c2ccccc2)c2ccccc2)CCN2CCCCC2)cc1 | 0.83 |
| COc1ccc([C@@H](C)N(CC=C(c2ccccc2)c2ccccc2)CCN2CCNCC2)cc1 | 0.86 |
| C[C@H](c1ccc(Cl)cc1)N(CC=C(c1ccccc1)c1ccccc1)CCN1CCN(C)CC1 | 0.7 |
| C[C@H](c1ccc([N+](=O)[O-])cc1)N(CC=C(c1ccccc1)c1ccccc1)CCN1CCN(C)CC1 | 0.62 |
| COc1ccc([C@@H](C)N(CC=C(c2ccccc2)c2ccccc2)CCCN2CCN(C)CC2)cc1 | 0.81 |
